assayedTarget: HLA-B*2705 expressed on C1R-neo cells (human, UniProt P01889 25-362; P61769 21-119)
assayNotes: ECL cell binding, C1R-neo B*2705 cells, pH 7.2
endpointName: max RLU (RLU)
// return numeric value only (unit: RLU, not printed)

The recorded max RLU for entry H4H2499N11 (antibody, V domains shown) VH: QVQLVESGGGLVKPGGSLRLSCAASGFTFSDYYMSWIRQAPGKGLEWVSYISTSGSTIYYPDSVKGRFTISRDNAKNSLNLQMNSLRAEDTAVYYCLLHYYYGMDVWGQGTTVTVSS VL: EIVLTQSPATLSLSPGERAPLSCRASQSVSSYLAWYQQKPGQPPRLLIYDASNRATGIPARFSGSGSGTDFTLTISSLEPEDFAVYYCQHRHNWPWHFGQGTKVEIK equals 9600

Lab book: max RLU of H4H2499N10 (antibody, V domains shown) VH: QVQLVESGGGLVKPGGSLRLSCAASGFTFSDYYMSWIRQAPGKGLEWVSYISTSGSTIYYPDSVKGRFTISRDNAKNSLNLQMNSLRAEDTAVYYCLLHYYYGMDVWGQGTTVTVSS VL: EIVLTQSPATLSLSPGERAPLSCRASQSVSSYLAWYQQKPGQPPRLLIYDASNRATGIPARFSGSGSGTDFTLTISSLEPEDFAVYYCQHRHHWPWHFGQGTKVEIK noted as 8600

Form: binder = H4H2499N6 (antibody, V domains shown) VH: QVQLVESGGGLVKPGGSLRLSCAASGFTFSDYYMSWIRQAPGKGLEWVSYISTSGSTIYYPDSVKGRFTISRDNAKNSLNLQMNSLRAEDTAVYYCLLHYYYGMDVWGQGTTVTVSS VL: EIVLTQSPATLSLSPGERAPLSCRASHHVSSHLAWYQQKPGQPPRLLIYDASNRATGIPARFSGSGSGTDFTLTISSLEPEDFAVYYCQQRSNWPWTFGQGTKVEIK ; max RLU = 17400

Shift focus to the following entry.
// field: max RLU; key: H4H2499N13 (antibody, V domains shown) VH: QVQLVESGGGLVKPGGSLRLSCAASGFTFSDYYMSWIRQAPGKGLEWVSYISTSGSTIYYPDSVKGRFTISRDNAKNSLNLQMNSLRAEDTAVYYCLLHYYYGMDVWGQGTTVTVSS VL: EIVLTQSPATLSLSPGERAPLSCRASQSVSSYLAWYQQKPGQPPRLLIYDASNRATGIPARFSGSGSGTDFTLTISSLEPEDFAVYYCQHRSHWPWTFGQGTKVEIK ; value = 9560
